Hello, the source for this data is the DeepSol protein solubility set, in case you need it.

test: soluble on expression in E. coli; label from the status in PepcDB or PDB records
recorded-endpoint: soluble on expression in E. coli

Take a look at these entries with their results.
MKMNEEKAVVVFSGGQDSTTCLFWAKKQFGEVEAVTFDYGQRHRREIDVAQAIADELGVRHTVLDLSLLGQLAPNALTRRDIAIEQKEGELPTTFVDGRNLLFLSFAAVFAKQRGARHIVTGVCETDFSGYPDCRDVFIKSLNVTLNLAMDYEFVIHTPLMWLTKAETWKLADELGALEFIRTKTLTCYNGIIADGCGECPACVLRKRGLDEYLREKEGVESR: not soluble
MIAVIFEVWPAEGEKQHYLDIAAGLRAELETIDGFLSIERFQSISNPEKMLSLSFFRDEQAVRAWRNTLPHRTAQALGRSGVFSDYRLRIAHVIRDYGLLEREEAPADSRDAHPVEGSSLG: not soluble
MIDQFMSMSELIDHTEEHKDWQILYNERVAKSLITAVHGGAIERGTSEIAQLISEIGGYSFYTFKGIRKNKNHELHVTSKHFDEPILNELVPTHEVVVSLHGCMGNDVAVYIGGKDLELSYEITQQLQKIGIVVKPAPAHIAGMQTENFVNKGKRDAGVQLELTVALRKQCFKNNKYNLHDRENRENWSQLMFSFSTAIANALKILNDLEHHHHHH: not soluble
SNAVTATQLAAKATTLYYLHKQAMTDEVSLLLEQALQLEPYNEAALSLIANDHFISFRFQEAIDTWVLLLDSNDPNLDRVTIIESINKAKKLM: soluble

Provide the reported soluble on expression in E. coli of each entry below, same order.
1. MSGAGKKIADVAFKASRTIDWDGMAKVLVTDEARREFSNLRRAFDEVNTQLQTKFSQEPEPIDWDYYRKGIGAGIVDKYKEAYDSIEIPKYVDKVTPEYKPKFDALLVELKEAEQKSLKESERLEKEIADVQEISKKLSTMTADEYFEKHPELKKKFDDEIRNDNWGY
2. MGSDKIHHHHHHMIRKHFKGYNFVCIPETGVTFRWGDSIAEDPYMAPWPELADISISNYCTNGCEYCYRASNEEGIFMTVADYKFILGQLTSKEYGSIFQVALGGGEPLLHPDFNEILHVTREEYGIIPNYTTCGKYFNQKNMEASKKYCGAVAVSWDPYRDNLSLEELRELGVQLKEEKIRTNIHYVISERTLIEAIKLLKGKYDEYLKDFNSVIFLTYKAAGRADKSDVIKSQKYLREFLDMVDAPLTKLKLGFDACFVPVLMKATGVDTDLVDSCECGFFSVYVSESMEVMPCSFCNNSNFTYNLKDLCFKDIWQKHFSAYRSYVNDNCKTGCAECDERSGCRGKCSFYNDIYLCNLV
3. MSDVAVAADTTETPAAPTKASKATKASKATKASKATKAKTTKVPMVKADAAHPPFINMVTEAISSIKDRKGPSRAAILKYITTKYTLGDQANKINAHLRKALNKGLESNAFVQASGNGANGRFRLAEKTASVAKSPAAAKKDATGEKKATTTVAKKAATGEKKATTTVAKKAATGEKKATTTVAKKAAAGDKAKKTEVKVKKVKSPKKIAKSPVNKVTKSPVKKIAKSSSMKAAPKKAAAKPAKKAPAAAPEA
4. MRFRPFTEEDLDRLNRLAGKRPVSLGALRFFARTGHSFLAEEGEEPMGFALAQAVWQGEATTVLVTRMEGRSVEALRGLLRAVVKSAYDAGVYEVALHLDPERKELEEALKAEGFALGPLVLAVRVLGSRGARGETRGVLE

1: soluble; 2: not soluble; 3: soluble; 4: soluble
